test system: AURKA; settings: concentration: 1 μM,replicates: in singlicate; n = 1;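 also: KINOMEscan kinase panel screen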
%Inh by entry:
# value in %; strip the unit string

Example results:
compound | %Inh (%)
CC(C)c1nc(-c2cccc(NS(=O)(=O)c3ccccc3)c2)c(-c2ccnc(Nc3ccc4c(c3)CN(C)CC4)n2)s1 | 23
Cn1ccc2ncnc(Oc3ccc(NC(=O)Nc4ccnc(C(F)(F)F)c4)c(Cl)c3)c21 | 18
C[C@@H](Oc1cc(-n2cnc3cc(-c4cnn(C)c4)ccc32)sc1C(N)=O)c1ccccc1Cl | 38

INPUT: Supply %Inh value. Item: Cn1ccc2ncnc(Oc3ccc(NC(=O)Nc4cccc(C(F)(F)F)c4)c(F)c3)c21
OUTPUT: 5

INPUT: Supply %Inh value. Item: O=C(Nc1n[nH]c2cc(-c3ccco3)ccc12)C1CC1
OUTPUT: 46

INPUT: Supply %Inh value. Item: CC(=O)Nc1ccc(-c2cc3ncnc(SCC(=O)O)c3s2)cc1
OUTPUT: 4

----------
test system: GCN2(Kin.Dom.2,S808G); construct: gene EIF2AK4; conditions: concentration: 1 μM,replicates: in singlicate; n = 1
%Inh by entry:
# value in %; strip the unit string

INPUT: Supply %Inh value. Item: Cc1cccc(-c2nc(Nc3ccncc3)c3sccc3n2)n1
OUTPUT: 5

INPUT: Supply %Inh value. Item: Cc1cccc2c(-c3ccncc3)c(-c3ccc(F)cc3)nn12.Cl
OUTPUT: 1

INPUT: Supply %Inh value. Item: CCN1CCN(CCCC(=O)Nc2n[nH]c3nc(-c4ccc(O)cc4)c(Br)cc23)CC1
OUTPUT: 0

INPUT: Supply %Inh value. Item: CCNCC(Cc1ccccc1)NC(=O)c1cc(Br)c(-c2ccnc3[nH]ccc23)s1.Cl.Cl (stereo not drawn)
OUTPUT: 43

----------
system: TRPM6; settings: concentration: 1 μM,replicates: in singlicate; n = 1
%Inh by entry:
# value in %; strip the unit string

Example results:
cpdSmiles | %Inh / %
COc1cccc(OC)c1C(=O)Nc1cccc(-c2nn3ccccc3c2-c2ccnc(Nc3cccc(F)c3)n2)c1 | 4
c1ccc(Oc2ccc(Nc3ccnc4ccc(-c5ccccn5)cc34)cc2)cc1 | 27

INPUT: Supply %Inh value. Item: CN(c1cccc(CNc2nc(Nc3ccc4c(c3)CC(=O)N4)ncc2C(F)(F)F)c1)S(C)(=O)=O
OUTPUT: 0

INPUT: Supply %Inh value. Item: O=C1NCCc2[nH]c(-c3ccncc3)cc21
OUTPUT: 0

INPUT: Supply %Inh value. Item: NC(=O)c1ccc(-c2cc3ncnc(SCC(=O)O)c3s2)cc1
OUTPUT: 0

----------
tested on: RIPK5; conditions: concentration: 1 μM,replicates: in singlicate; n = 1
Outcome label depends on %Inh relative to 5%: at/above gives y, below gives n.

Examples with answers:
compound | experimentalSystem | classAssignment
NC(=O)Nc1sc(-c2ccc(F)cc2)cc1C(N)=O [GW789449] | RIPK5 | y
COc1cccc(C2=C(Nc3cccc(Cl)c3)C(=O)NC2=O)c1 [SB-341556] | RIPK5 | y
CC(=O)c1c(-c2ccncc2)[nH]c(-c2ccncc2)c1C [GW493036] | RIPK5 | n
O=C(Nc1cccc(Oc2ccc3nccn3n2)c1)Nc1cccc(C(F)(F)F)c1 | RIPK5 | n
CCNCC(Cc1ccccc1)NC(=O)c1cc(Br)c(-c2ccnc3[nH]ccc23)s1.Cl.Cl (stereo not shown) [GSK1383280] | RIPK5 | y
C[C@@H](Oc1cc(-n2cnc3cc(-c4cnn(C)c4)ccc32)sc1C(N)=O)c1ccccc1Cl [GSK580432] | RIPK5 | y
Cl.Cl.NC[C@H](CC1CCCCC1)NC(=O)c1ccc(-c2ccnc3[nH]ccc23)s1 [GSK1581428] | RIPK5 | n
CC(=O)Nc1ccc(-c2cc3ncnc(SCC(=O)O)c3s2)cc1 | RIPK5 | y

INPUT: Quick check, %Inh >= 5%? CNC(=O)c1ccccc1Nc1nc(Nc2cccc(CS(C)(=O)=O)c2)ncc1C.O=CO [GSK1520489]
OUTPUT: y

INPUT: Quick check, %Inh >= 5%? C[C@@H]1CNc2c(sc3ccc4nc(-c5ccncc5)ccc4c23)C(=O)N1
OUTPUT: n

INPUT: Quick check, %Inh >= 5%? COc1cc(Nc2nccc(N3CCC(NC(=O)c4cccc(C#N)c4)C3)n2)cc(OC)c1OC (stereo not shown) [GSK1379751]
OUTPUT: n

INPUT: Quick check, %Inh >= 5%? CN1CCN(CCCNc2nccc(-c3c(-c4ccc(F)cc4)nn4cc(C(N)=O)ccc34)n2)CC1 [GW622475]
OUTPUT: n

INPUT: Quick check, %Inh >= 5%? Cc1cccc(-c2nc(Nc3ccncc3)c3sccc3n2)n1 [GW869641]
OUTPUT: y

From: paper PMC5540273
